Experiment: Apparent permeability across apical to basolateral side in human Caco2 cells at 1 uM incubated for 2 hrs by LC-MS/MS analysis
Type: ADME, cell-based
Conditions: Caco-2
readoutLabel: Papp A→B at 2 h, 1 µM (×10⁻⁶ cm/s)

1. C=CC(=O)N1CC2(CC(Nc3ncnc(N)c3-c3ccc(Oc4ccccc4)cc3)C2)C1 ... 9.3
2. C=CC(=O)N[C@@H]1CCC[C@H](Nc2ncnc(N)c2-c2ccc(Oc3ccccc3)cc2)C1 (relative stereo) ... 11.9
3. C=CC(=O)N1CCC(O)(CNc2ncnc(N)c2-c2ccc(Oc3ccccc3)cc2)CC1 ... 9
4. C=CC(=O)N[C@@H]1CC[C@H](Nc2ncnc(N)c2-c2ccc(Oc3ccccc3)cc2)C1 (relative stereo) ... 23.6
5. C=CC(=O)Nc1cccc(Nc2ncnc(N)c2-c2ccc(Oc3ccccc3)cc2)c1 ... 4.2
6. C=CC(=O)N[C@H]1CC[C@@H](Nc2ncnc(N)c2-c2ccc(Oc3ccccc3)cc2)CC1 ... 10
7. C=CC(=O)N1CCC(CNc2ncnc(N)c2-c2ccc(Oc3ccccc3)cc2)CC1 [EVOBRUTINIB] ... 22
8. C=CC(=O)N1CCC(Nc2ncnc(N)c2-c2ccc(Oc3ccccc3)cc2)C1 (single isomer, unassigned) ... 25.2
9. C=CC(=O)NC12CCC(Nc3ncnc(N)c3-c3ccc(Oc4ccccc4)cc3)(C1)C2 ... 21.7
10. C=CC(=O)Nc1cccc(Oc2ncnc(N)c2-c2ccc(Oc3ccccc3)cc2)c1 ... 1.6
